System: IL-8
TEST: In vitro chemotaxis, inhibition v IL-8
Type: cell-based, human
Parameters: concentration or dose not given beside the values
Bridge positions count the residues as written; N and C are the ends. Square brackets hold non-standard residues; d marks the D form. Peptide text beside a SMILES is read from it. * marks the point of attachment. Lauroyl = CCCCCCCCCCCC(=O)*
Give v IL-8 inhibition (%) for every item shown.
Write down the numeric answer in % and omit the unit.

Task: Given the entry CCCCCCCCCCCC(=O)NCCCC[C@H](N)C(=O)N[C@H](C(=O)N[C@H]1CSSC[C@@H](C(N)=O)NC(=O)[C@H](CCC(N)=O)NC(=O)[C@H]([C@@H](C)CC)NC(=O)[C@H](Cc2c[nH]c3ccccc23)NC(=O)[C@H](CCCCN)NC(=O)[C@H](CCC(N)=O)NC(=O)[C@H](CCCCN)NC(=O)[C@@H]2CCCN2C(=O)[C@H](CC(=O)O)NC(=O)[C@H](CC(C)C)NC1=O)[C@@H](C)CC [Example 169] (H-K(Lauroyl)ICLDPKQKWIQC-NH2; disulfide 3-13) , what v IL-8 inhibition (%) was observed with IL-8?
Result: 7.7

Task: Any idea what v IL-8 inhibition (%) came out for CC[C@H](C)[C@@H]1NC(=O)[C@H](Cc2c[nH]c3ccccc23)NC(=O)[C@H](CCCCN)NC(=O)[C@H](CCC(N)=O)NC(=O)[C@H](CCCCN)NC(=O)[C@@H]2CCCN2C(=O)[C@@H](NC(C)=O)CSSC[C@@H](C(=O)N[C@H](CC(=O)O)C(=O)N[C@H](CC(C)C)C(N)=O)NC(=O)[C@H](CCC(N)=O)NC1=O [Example 158] (Ac-CPKQKWIQC[dD][dL]-NH2; disulfide 1-9) on IL-8?
Result: −17.9

----------
Exercise: for every item that follows, state its recorded half-life.
TEST: Half-life in rat plasma in vitro
Assay type: in vitro ADME
EXPERIMENTAL PARAMETERS: read-out: T ½ rat plasma in vitro (converted)
Provide the reading as a plain figure in h.

Task: I am curious: what half-life value has been reported for N[C@@H](Cc1c[nH]c2ccccc12)C(=O)NCCC(=O)NC1CCC(=O)NC1=O (stereo partly drawn) [Example 182, Trp-βAla-α-aminoglutaramide] ?
Result: 0.9

Task: So what does the record say about half-life for CC(C)(C)OC(=O)N[C@@H](Cc1c[nH]c2ccccc12)C(=O)NCCC(=O)NC1CCC(=O)NC1=O (stereo partly drawn) [Example 165, BOC-Trp-βA1a-α-aminoglutaramide] ?
Result: 4

Task: Value lookup for half-life; key = CC(C)[C@H](NC(=O)[C@H](Cc1c[nH]c2ccccc12)NC(=O)OC(C)(C)C)C(=O)NC1CCC(=O)NC1=O (stereo partly drawn) [Example 164, BOC-Trp-Val-α-aminoglutaramide]
Result: 11.1

Task: # input compound: CC(C)[C@@H](CC(=O)NC1CCC(=O)NC1=O)NC(=O)[C@H](Cc1c[nH]c2ccccc12)NC(=O)OC(C)(C)C (stereo partly drawn) [Example 184, BOC-Trp-βhVal-α-aminoglutarimide] ; wanted: its half-life
Result: 1.3

----------
System: IL-8
TEST: In vitro chemotaxis, inhibition v IL-8
Format: cell-based, human
Design: concentration or dose not given beside the values
Bridge positions count the residues as written; N and C are the ends. Square brackets hold non-standard residues; d marks the D form. Peptide text beside a SMILES is read from it. GABA = NCCCC(=O)O
ASSAY METRIC: v IL-8 inhibition (%)

Task: # v IL-8 inhibition (%) lookup, item CC[C@H](C)[C@@H]1NC(=O)[C@H](Cc2c[nH]c3ccccc23)NC(=O)[C@H](CCCCN)NC(=O)[C@H](CCC(N)=O)NC(=O)[C@@H](N)CSSC[C@@H](C(N)=O)NC(=O)[C@H](CCC(N)=O)NC1=O [Example 50, c(Cys-Gln-Lys-Trp-Ile-Gln-Cys)-NH2] (H-CQKWIQC-NH2; disulfide 1-7)
Result: 104.8%

Task: v IL-8 inhibition (%) lookup needed for CC[C@H](C)[C@@H]1NC(=O)[C@H](Cc2c[nH]c3ccccc23)NC(=O)[C@H](CCCCN)NC(=O)[C@H](CCC(N)=O)NC(=O)[C@@H](NC(=O)[C@H](CCCCN)NC(=O)[C@@H]2CCCN2C(=O)[C@@H](N)CC(=O)O)CSSC[C@@H](C(N)=O)NC(=O)[C@H](CCC(N)=O)NC1=O [Example 41] (H-DPKCQKWIQC-NH2; disulfide 4-10) , thanks.
Result: 67.8%

Task: State the recorded v IL-8 inhibition (%) for this entry: CC[C@@H](C)[C@H]1NC(=O)[C@@H](CCC(N)=O)NC(=O)[C@H](N)CSSC[C@H](C(=O)NCCCC(=O)O)NC(=O)[C@@H](CC(C)C)NC(=O)[C@@H](CC(=O)O)NC(=O)[C@H]2CCCN2C(=O)[C@@H](CCCCN)NC(=O)[C@@H](CCC(N)=O)NC(=O)[C@@H](CCCCN)NC(=O)[C@@H](Cc2c[nH]c3ccccc23)NC1=O [Example 142] (H-[dC][dQ][dI][dW][dK][dQ][dK][dP][dD][dL][dC][GABA]-OH; disulfide 1-11)
Result: 107.3%

----------
TEST: Half-life in rat in vivo
EXPERIMENTAL PARAMETERS: read-out: T ½ rat in vivo
Bridge positions count the residues as written; N and C are the ends. Square brackets hold non-standard residues; d marks the D form. Peptide text beside a SMILES is read from it. * marks the point of attachment. Lauroyl = CCCCCCCCCCCC(=O)*; X1 = O=C(CN1CCN(CCO)CC1)*
ASSAY METRIC: half-life (min)
Only the number, expressed in min, is required.

Task: Name the recorded half-life for CC[C@H](C)[C@@H]1NC(=O)[C@H](Cc2c[nH]c3ccccc23)NC(=O)[C@H](CCCCN)NC(=O)[C@H](CCC(N)=O)NC(=O)[C@H](CCCCN)NC(=O)[C@@H]2CCCN2C(=O)[C@H](CC(=O)O)NC(=O)[C@H](CC(C)C)NC(=O)[C@@H](NC(C)=O)CSSC[C@@H](C(N)=O)NC(=O)[C@H](CCC(N)=O)NC1=O [Example 9] (Ac-CLDPKQKWIQC-NH2; disulfide 1-11) .
Result: 5.4

Task: Which half-life reading was recorded for the compound CCCCCCCCCCCC(=O)NCCCC[C@H](NC(C)=O)C(=O)N[C@H]1CSSC[C@@H](C(N)=O)NC(=O)[C@H](CCC(N)=O)NC(=O)[C@H]([C@@H](C)CC)NC(=O)[C@H](Cc2c[nH]c3ccccc23)NC(=O)[C@H](CCCCN)NC(=O)[C@H](CCC(N)=O)NC(=O)[C@H](CCCCN)NC(=O)[C@@H]2CCCN2C(=O)[C@H](CC(=O)O)NC(=O)[C@H](CC(C)C)NC1=O [Example 162] (Ac-K(Lauroyl)CLDPKQKWIQC-NH2; disulfide 2-12) ?
Result: 17

Task: Need half-life of CC[C@@H](C)[C@H]1NC(=O)[C@@H](CCC(N)=O)NC(=O)[C@H](NC(=O)CN2CCN(CCO)CC2)CSSC[C@H](C(N)=O)NC(=O)[C@@H](CC(C)C)NC(=O)[C@@H](CC(=O)O)NC(=O)[C@H]2CCCN2C(=O)[C@@H](CCCCN)NC(=O)[C@@H](CCC(N)=O)NC(=O)[C@@H](CCCCN)NC(=O)[C@@H](Cc2c[nH]c3ccccc23)NC1=O [Example 152] (X1-[dC][dQ][dI][dW][dK][dQ][dK][dP][dD][dL][dC]-NH2; disulfide 1-11) , thanks.
Result: 38

Task: Which value of half-life has been reported for CC[C@H](C)[C@@H]1NC(=O)[C@H](Cc2c[nH]c3ccccc23)NC(=O)[C@H](CCCCN)NC(=O)[C@H](CCC(N)=O)NC(=O)[C@H](CCCCN)NC(=O)[C@@H](NC(=O)[C@@H]2CCCN2C(=O)[C@H](CC(=O)O)NC(=O)[C@H](CC(C)C)NC(C)=O)CSSC[C@@H](C(N)=O)NC(=O)[C@H](CCC(N)=O)NC1=O [Example 21] (Ac-LDPCKQKWIQC-NH2; disulfide 4-11) in the records?
Result: 22

----------
Tested on: IL-8
TEST: In vitro chemotaxis, inhibition v IL-8
Assay type: cell-based, human
Parameters: concentration or dose not given beside the values
Bridge positions count the residues as written; N and C are the ends. Square brackets hold non-standard residues; d marks the D form. Peptide text beside a SMILES is read from it. * marks the point of attachment. X1 = O=C(CN1CCN(CCO)CC1)*; Octanoyl = CCCCCCCC(=O)*; dDap = NC[C@@H](N)C(=O)O
ASSAY METRIC: v IL-8 inhibition (%)
Quick note: give the figure in %, leave out the unit.

Task: Can you share its v IL-8 inhibition (%)? I mean this compound: CCCCCCCC(=O)NCCCC[C@@H]1NC(=O)[C@@H](CC(C)C)NC(=O)[C@@H](CC(=O)O)NC(=O)[C@H]2CCCN2C(=O)[C@@H](CCCCN)NC(=O)[C@@H](CCC(N)=O)NC(=O)[C@@H](CCCCN)NC(=O)[C@@H](Cc2c[nH]c3ccccc23)NC(=O)[C@@H]([C@H](C)CC)NC(=O)[C@@H](CCC(N)=O)NC(=O)[C@H](N)CSSC[C@H](C(N)=O)NC1=O [Example 153] (H-[dC][dQ][dI][dW][dK][dQ][dK][dP][dD][dL]K(Octanoyl)[dC]-NH2; disulfide 1-12)
Result: 4.1

Task: Using the record for CC[C@H](C)[C@@H]1NC(=O)[C@H](Cc2c[nH]c3ccccc23)NC(=O)[C@H](CCCCN)NC(=O)[C@H](CCC(N)=O)NC(=O)[C@H](CCCCN)NC(=O)[C@@H]2CCCN2C(=O)[C@H](CC(=O)O)NC(=O)[C@H](CC(C)C)NC(=O)[C@@H](NC(C)=O)CSSC[C@@H](C(=O)N[C@H](CN)C(N)=O)NC(=O)[C@H](CCC(N)=O)NC1=O [Example 16] (Ac-CLDPKQKWIQC[dDap]-NH2; disulfide 1-11) , report its v IL-8 inhibition (%).
Result: 19.8

Task: I would be grateful if you could share the reported v IL-8 inhibition (%) for CC[C@@H](C)[C@H]1NC(=O)[C@@H](CCC(N)=O)NC(=O)[C@H](NC(=O)CN2CCN(CCO)CC2)CSSC[C@H](C(N)=O)NC(=O)[C@@H](CC(C)C)NC(=O)[C@@H](CC(=O)O)NC(=O)[C@H]2CCCN2C(=O)[C@@H](CCCCN)NC(=O)[C@@H](CCC(N)=O)NC(=O)[C@@H](CCCCN)NC(=O)[C@@H](Cc2c[nH]c3ccccc23)NC1=O [Example 152] (X1-[dC][dQ][dI][dW][dK][dQ][dK][dP][dD][dL][dC]-NH2; disulfide 1-11) .
Result: 103.5
